Quick list: composite z-score per entry.
Measured target: Torsin-1A (Homo sapiens)
Assay name: small-molecule binders of mutant TOR1A in lysate, primary screen, cell lysate, small-molecule microarray, COS7 lysate, 635/667 nm fluorescence (AID 1150);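 note: score pools 667 nm emission and signal to noise measuring lysate protein binding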
Reported conditions: COS7 hTOR1A mutant lysate, 635 nm fluorescence, higher = more signal
Please give the numeric answer without any surrounding text.

In the examples that follow, each entry is paired with its recorded composite z-score.
Q. What does the data say about its composite z-score? Entry: O=C(NCc1ccccc1)[C@@]1(Cc2ccccc2)N=C(c2ccc(OCCCO)cc2)O[C@H]1c1ccccc1
A. 0.918

Q. What does the data say about its composite z-score? Entry: C#CCN(CC=C(C)C)[C@H](CO)c1ccccc1
A. 1.08

Q. What does the data say about its composite z-score? Entry: CCOC(=O)C[C@H]1[C@H](OC(=O)Cc2ccc3c(c2)OCO3)[C@@H](NC(=O)c2ccc(-c3ccccc3)cc2)c2cc(OCCCO)ccc2N1C(=O)c1ccc2ccccc2n1
A. 0.438

Read the next record carefully.
Q. What does the data say about its composite z-score? Entry: CC(=O)NCCCC[C@@H]1NC(=O)[C@@H]2C[C@H](C(=O)NCCCCN(C)C)[C@H](c3cccc(OCCO)c3)N2C1=O
A. 0.0889

###

Quick list: composite z-score per entry.
Test system: XIP peptide (Xip251-270)
Assay name: small-molecule binders of XIP peptide, primary screen, biochemical, small-molecule microarray, fluorescence 635/667 nm, 0.5 µg/mL protein (AID 1183)
Reported conditions: small-molecule microarray binding, fluorescence 635 nm; higher = more signal

Q. What does the data say about its composite z-score? Entry: CC(C)C[C@H]1NC(=O)[C@@]23C(=O)N[C@@H](Cc4ccccc4)C2[C@H](C)[C@@]2(C)O[C@H]2C3/C=C/C/C=C\CNC(=O)[C@H](Cc2ccccc2)NC1=O (stereo partly specified)
A. 0.725

Q. What does the data say about its composite z-score? Entry: C[N+](C)(C)CCCCNC(=O)[C@H]1C[C@H]2C(=O)N[C@@H](Cc3ccccc3)C(=O)N2[C@H]1c1ccc(O)cc1
A. -0.229

Q. What does the data say about its composite z-score? Entry: NC(=O)[C@@H]1[C@H]2C(=O)O[C@H](c3ccccc3)[C@H](c3ccccc3)N2[C@H](c2ccc(O)cc2)[C@@]12C(=O)Nc1ccc(C#CC3(O)CCCCCC3)cc12
A. 0.458

Q. What does the data say about its composite z-score? Entry: C=CCN(Cc1ccccc1)C(=O)C(c1cccs1)N(CCOCCO)C(=O)/C=C\C(=O)O (stereo unspecified)
A. -0.573

Q. What does the data say about its composite z-score? Entry: OC([C@@H]1CC(c2ccccc2)=NO1)[C@H]1CC(c2ccccc2)=NO1 (stereo partly specified)
A. -0.444

Q. What does the data say about its composite z-score? Entry: CN(C)CCCNC(=O)[C@@]1(C)c2ccccc2C(=O)N(Cc2cc(F)cc(C(F)(F)F)c2)[C@H]1c1ccc(CO)cc1
A. -0.114

Q. What does the data say about its composite z-score? Entry: CC1(C)[C@@H]2CC(C(O)C3C=CC4C(=O)N(c5ccccc5)C(=O)C4N3Nc3ccccc3)=C[C@H]1C2 (stereo partly specified)
A. 0.576

Q. What does the data say about its composite z-score? Entry: CCc1oc(CC[C@@H](CO)NC(=O)NCCn2cc(C3(O)CCCCC3)nn2)c(C(=O)OC)c1C(=O)OC
A. 0.875

Continuing:
Q. What does the data say about its composite z-score? Entry: CN1C(=O)C2C=CC(C(O)c3ccccc3)N(Nc3ccccc3)C2C1=O (stereo unspecified)
A. 0.357

Q. What does the data say about its composite z-score? Entry: COc1ccc([Si](C)(C)[C@@H]2[C@@H](CCO)O[C@]3(C(=O)N(Cc4ccc(N5C(=O)COc6ccccc65)cc4)c4ccccc43)[C@H]2C)cc1
A. 0.811

Q. What does the data say about its composite z-score? Entry: COc1ccc(C(O)C2C=CC3C(=O)N(c4ccccc4)C(=O)C3N2Nc2ccccc2F)cc1OCc1ccccc1 (stereo unspecified)
A. 0.698

###

Measured target: Neurogenic locus notch homolog protein 3 (Homo sapiens)
Assay name: NOTCH3 binders on small-molecule microarray, primary screen, biochemical, 635/667 nm fluorescence (AID 1096)
Reported conditions: NOTCH3 binding, 635 nm fluorescence, higher = more signal
Quick list: composite z-score per entry.
Please give the numeric answer without any surrounding text.

Q. What does the data say about its composite z-score? Entry: COC(=O)[C@@]1(Cc2ccccc2)[C@H]2c3cc(C(=O)N(C)C)n(CCSCCO)c3C[C@H]2CN1C(=O)c1ccccc1
A. -0.0488

Continuing:
Q. What does the data say about its composite z-score? Entry: COCCCN1C(=O)[C@@]2(c3ccc([N+](=O)[O-])cc3)CC(=O)N(C3CCCCC3)[C@@H]2c2ccc(CO)cc21
A. -0.37

Q. What does the data say about its composite z-score? Entry: COCCOC(=O)N1C(=O)[C@@]2(c3cc(C#CC4=CCCCC4)ccc31)[C@H](c1ccc(O)cc1)N1[C@H](c3ccccc3)[C@H](c3ccccc3)OC(=O)[C@H]1[C@@H]2C(N)=O
A. 1.1

Q. What does the data say about its composite z-score? Entry: C#CCNC(=O)[C@H](Cc1ccccc1)NC(=O)CCC(=O)O
A. -0.502

###

Assay name: modulators of HCV replicon luciferase signal, primary screen, HCV replication inhibitor project, Huh7 cells, luciferase reporter (AID 1109);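 note: huh7 hepatoma cells harbouring a luciferase neomycin HCV replicon reporter; luciferase luminescence as measure of HCV replicon replication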
Reported conditions: 48 h, higher = more signal
Note to self: values exactly at -0.5 are true. So z-score at or above -0.5 is true, below is false.

Q. Threshold query (z-score >= -0.5) on COC(=O)[C@@]1(Cc2ccccc2)[C@H]2c3cc(C(=O)N4CCCC4)n(Cc4nc5ccccc5[nH]4)c3C[C@H]2CN1C(=O)c1ccccc1
A. false

Q. Threshold query (z-score >= -0.5) on C=CCNC(=O)[C@@H]1[C@H]2C(=O)O[C@H](c3ccccc3)[C@H](c3ccccc3)N2[C@H](c2ccccc2OCCO)[C@@]12C(=O)N(C(=O)OCCOC)c1ccc(C#CCNC(N)=O)cc12
A. false

Q. Threshold query (z-score >= -0.5) on O=C(c1ccccc1)N1Cc2ccccc2[C@@H]2OC(c3ccc(OCCCO)cc3)=N[C@]2(Cc2ccccc2)C1=O
A. false

Q. Threshold query (z-score >= -0.5) on O=C1c2ccccc2[C@@]2(Cc3ccccc3N(CCN3CCOCC3)C2=O)[C@H](c2ccc(CO)cc2)N1Cc1ccccc1
A. true

Q. Threshold query (z-score >= -0.5) on O=C1NC(=O)C2C1C=CC(C(O)Cc1ccccc1)N2Nc1ccc(Cl)cc1Cl (centres undefined)
A. true

Continuing:
Q. Threshold query (z-score >= -0.5) on CC(C)(C)OC(=O)CC[C@]1(C(=O)O)N=C(c2ccc(OCCCO)cc2)O[C@H]1c1ccccc1N=[N+]=[N-]
A. true

Q. Threshold query (z-score >= -0.5) on COC(=O)[C@@]1(Cc2ccccc2)[C@H]2c3cc(C(=O)N4CCCC4)n(Cc4cccc5ccccc45)c3C[C@H]2CN1C(=O)c1ccccc1
A. false

###

Quick list: composite z-score per entry.
Measured target: Torsin-1A-interacting protein 2 (Homo sapiens)
Assay name: LULL1 binders on small-molecule microarray, primary screen, cell lysate, human LULL1 lysate, 635/667 nm fluorescence (AID 1092);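 note: probe is lysate of COS7 cells overexpressing human LULL1; score merges per-feature 667 nm fluorescence with signal-to-noise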
Reported conditions: hLULL1 lysate binding, 635 nm fluorescence, higher = more signal
Please give the numeric answer without any surrounding text.

In the examples that follow, each entry is paired with its recorded composite z-score.
Q. // fetch Torsin-1A-interacting protein 2 (Homo sapiens) composite z-score for C=CCOC(=O)[C@H]1[C@@H]2C(=O)O[C@@H](c3ccccc3)[C@@H](c3ccccc3)N2[C@@H](c2ccc(OCCOC(=O)[C@@H]3C[C@@H]4C(=O)N[C@@H](CCCC[N+](C)(C)C)C(=O)N4[C@@H]3c3ccc(O)cc3)cc2)[C@]12C(=O)Nc1ccccc12
A. 2.84

Q. // fetch Torsin-1A-interacting protein 2 (Homo sapiens) composite z-score for COCCOC(=O)N1C(=O)[C@@]2(c3cc(C#CC4=CCCCC4)ccc31)[C@H](C(=O)N1CCc3cc(OC)c(OC)cc3C1)[C@H]1C(=O)O[C@H](c3ccccc3)[C@H](c3ccccc3)N1[C@@H]2c1ccc(OCCO)cc1
A. 2.49

Q. // fetch Torsin-1A-interacting protein 2 (Homo sapiens) composite z-score for COc1ccc(C(=O)Nc2cccc(CN3C(=O)[C@]4(O[C@H](CCO)[C@@H]([Si](C)(C)c5ccc(OC)cc5)[C@@H]4C)c4ccccc43)c2)cc1
A. 1.83

Q. // fetch Torsin-1A-interacting protein 2 (Homo sapiens) composite z-score for O=C1O[C@H](c2ccccc2)[C@H](c2ccccc2)N2[C@H]1[C@@H](C(=O)Nc1nc3ccccc3s1)[C@]1(C(=O)Nc3ccc(C#CC4(O)CCCCCC4)cc31)[C@H]2c1ccc(OCCO)cc1
A. 2.2

Q. // fetch Torsin-1A-interacting protein 2 (Homo sapiens) composite z-score for CC1CC/C=C\[C@H]2OC34C=CCN(Cn5nnc6ccccc65)C(=O)[C@H]3N(C(CO)C(C)C)C(=O)[C@@H]4C2C(=O)O1 (stereo partly drawn)
A. 3.28

Q. // fetch Torsin-1A-interacting protein 2 (Homo sapiens) composite z-score for CC(C)(C)OC(=O)CC[C@@]12N=C(c3ccc(OCCCO)cc3)O[C@@H]1c1ccccc1N(CCS(=O)(=O)c1ccccc1)C2=O
A. 2.48

Continuing:
Q. // fetch Torsin-1A-interacting protein 2 (Homo sapiens) composite z-score for O=C1NC(=O)C2C1C=CC(C(O)c1ccccc1)N2Nc1ccc(Cl)cc1Cl (stereo not drawn)
A. 3.74

Q. // fetch Torsin-1A-interacting protein 2 (Homo sapiens) composite z-score for [N-]=[N+]=NCc1ccccc1[C@@H]1OC(c2ccc(OCCCO)cc2)=N[C@]1(Cc1ccccc1N=[N+]=[N-])C(=O)N1CCOCC1
A. 3.25

Q. // fetch Torsin-1A-interacting protein 2 (Homo sapiens) composite z-score for O=C(O)[C@@]1(CCS(=O)(=O)c2ccccc2)COC(c2ccc(OCCCO)cc2)=N1
A. 2.76

Q. // fetch Torsin-1A-interacting protein 2 (Homo sapiens) composite z-score for CCOC(=O)C[C@H]1[C@H](OC(=O)Cc2ccc3c(c2)OCO3)[C@@H](NC(=O)c2ccc3ccccc3c2)c2cc(OCCCO)ccc2N1C(=O)c1ccccc1
A. 1.69

Q. // fetch Torsin-1A-interacting protein 2 (Homo sapiens) composite z-score for COCCOC(=O)N1C(=O)[C@@]2(c3cc(C#CC4=CCCCC4)ccc31)[C@H](c1ccc(O)cc1)N1[C@H](c3ccccc3)[C@H](c3ccccc3)OC(=O)[C@H]1[C@@H]2C(N)=O
A. 1.84

Q. // fetch Torsin-1A-interacting protein 2 (Homo sapiens) composite z-score for O=C1O[C@H](c2ccccc2)[C@H](c2ccccc2)N2[C@H]1[C@@H](C(=O)O)[C@]1(C(=O)Nc3ccc(C#CC4=CCCCC4)cc31)[C@H]2c1ccccc1OCCO
A. 3.1

Q. // fetch Torsin-1A-interacting protein 2 (Homo sapiens) composite z-score for CCCCC(=C=CC[C@@H](O)c1ccccc1OCCO)CCO
A. 1.06
